Numbers sourced from patent EP0297946A2.

Test system: P388 murine leukemia cells (drug-resistant line)
Measurement Protocol: cells
Format: cell-based
Measurement Setup: Mus musculus
Readout Type: IC50

Input: Give IC50 only, for C=C1C(C)C2C(Cc3ccccc3)NC(=O)C23OC(=O)C=CC(O)CCCC(C)CC=CC3C1O (stereo not shown) , using P388 murine leukemia cells (drug-resistant line) data.
Output: 35 to 40 µM
